Test: pKa of SNAFR-2 from absorption and emission spectra as a function of pH
Format: physicochemical
Conditions: 50 mM phosphate buffer with 0.25% DMSO, Abs, λisobestic 394, λ1/λ2 344/394; 50 mM phosphate buffer; read-out: pKa
Parameter measured: pKa
// return a plain number; no unit text

Problem: Please look up its pKa: O=c1ccc2c(-c3ccccc3)c3ccc4cc(O)ccc4c3oc-2c1 [SNAFR-2]
Solution: 8.58

---

Assay: pKa of SNAFR-2 from absorption and emission spectra as a function of pH
Format: physicochemical
Conditions: 50 mM phosphate buffer with 0.25% DMSO, Em, λex 488, λ1/λ2 575/600; 50 mM phosphate buffer; read-out: pKa
Parameter measured: pKa
// return a plain number; no unit text

Problem: Please look up its pKa: `O=c1ccc2c(-c3ccccc3)c3ccc4cc(O)ccc4c3oc-2c1`
Solution: 8.36

---

Experiment: pKa of SNAFR-6 by absorption and fluorescence titration; aggregation in buffered media
Assay type: physicochemical
Conditions: fluorescence titration
Text: Both the neutral and anionic forms could be excited simultaneously at wavelengths from ˜420 nm to ˜530 nm, a range that includes both the 488 and 514 nm argon ion laser spectral lines. The neutral emission could be selectively measured by using, for example, an FITC filter set. Also, the anionic form can be selectively excited using a longer excitation wavelength, ˜540 nm to ˜650 nm. Anionic emission can be selectively measured, using, for example, common Texas Red filter sets. […]
Parameter measured: pKa
// return a plain number; no unit text

Problem: Please look up its pKa: `O=c1ccc2c(-c3ccccc3)c3cc4ccc(O)cc4cc3oc-2c1`
Solution: 8.1

---

Test: pKa of SNAFR-2 from absorption and emission spectra as a function of pH
Format: physicochemical
Settings: 50 mM phosphate buffer with 0.25% DMSO, Em, λex 325, λ1/λ2 627/597; 50 mM phosphate buffer; read-out: pKa
Parameter measured: pKa
// return a plain number; no unit text

Problem: Please look up its pKa: `O=c1ccc2c(-c3ccccc3)c3ccc4cc(O)ccc4c3oc-2c1`
Solution: 8.38

---

Test: pKa of SNAFR-2 from absorption and emission spectra as a function of pH
Assay type: physicochemical
Conditions: 50 mM phosphate buffer with 0.25% DMSO, emission spectra; phosphate buffer with 0.25% DMSO; read-out: average pKa-em
Parameter measured: pKa
// return a plain number; no unit text

Problem: Please look up its pKa: O=c1ccc2c(-c3ccccc3)c3ccc4cc(O)ccc4c3oc-2c1 [SNAFR-2]
Solution: 8.34

---

Assay: pKa of SNAFR-2 from absorption and emission spectra as a function of pH
Assay type: physicochemical
Settings: 50 mM phosphate buffer with 0.25% DMSO, absorption spectra; phosphate buffer with 0.25% DMSO; read-out: average pKa-abs
Parameter measured: pKa
// return a plain number; no unit text

Problem: Please look up its pKa: O=c1ccc2c(-c3ccccc3)c3ccc4cc(O)ccc4c3oc-2c1 [SNAFR-2]
Solution: 8.53

---

Test: pKa of SNAFR-2 from absorption and emission spectra as a function of pH
Format: physicochemical
Details: 50 mM phosphate buffer with 0.25% DMSO, Em, λex 325, λ1/λ2 575/597; 50 mM phosphate buffer; read-out: pKa
Parameter measured: pKa
// return a plain number; no unit text

Problem: Please look up its pKa: `O=c1ccc2c(-c3ccccc3)c3ccc4cc(O)ccc4c3oc-2c1`
Solution: 8.32

---

Assay: pKa of SNAFR-2 from absorption and emission spectra as a function of pH
Format: physicochemical
Conditions: 50 mM phosphate buffer with 0.25% DMSO, Abs, λisobestic 484, λ1/λ2 469/484; 50 mM phosphate buffer; read-out: pKa
Parameter measured: pKa
// return a plain number; no unit text

Problem: Please look up its pKa: `O=c1ccc2c(-c3ccccc3)c3ccc4cc(O)ccc4c3oc-2c1`
Solution: 8.47

---

Experiment: pKa of SNAFR-2 from absorption and emission spectra as a function of pH
Assay type: physicochemical
Conditions: 50 mM phosphate buffer with 0.25% DMSO, Abs, λisobestic 327, λ1/λ2 344/327; 50 mM phosphate buffer; read-out: pKa
Parameter measured: pKa

Problem: Please look up its pKa: O=c1ccc2c(-c3ccccc3)c3ccc4cc(O)ccc4c3oc-2c1 [SNAFR-2]
Solution: 8.51

---

Experiment: pKa of SNAFR-2 from absorption and emission spectra as a function of pH
Assay type: physicochemical
Settings: 50 mM phosphate buffer with 0.25% DMSO, Abs, λisobestic 394, λ1/λ2 380/394; 50 mM phosphate buffer; read-out: pKa
Parameter measured: pKa
// return a plain number; no unit text

Problem: Please look up its pKa: `O=c1ccc2c(-c3ccccc3)c3ccc4cc(O)ccc4c3oc-2c1`
Solution: 8.68

---

Assay: pKa of SNAFR-2 from absorption and emission spectra as a function of pH
Assay type: physicochemical
Conditions: 50 mM phosphate buffer with 0.25% DMSO, Em, λex 514, λ1/λ2 575/595; 50 mM phosphate buffer; read-out: pKa
Parameter measured: pKa
// return a plain number; no unit text

Problem: Please look up its pKa: `O=c1ccc2c(-c3ccccc3)c3ccc4cc(O)ccc4c3oc-2c1`
Solution: 8.32

---

Assay: pKa of SNAFR-2 from absorption and emission spectra as a function of pH
Type: physicochemical
Settings: 50 mM phosphate buffer with 0.25% DMSO, Abs, λisobestic 304, λ1/λ2 312/304; 50 mM phosphate buffer; read-out: pKa
Parameter measured: pKa
// return a plain number; no unit text

Problem: Please look up its pKa: `O=c1ccc2c(-c3ccccc3)c3ccc4cc(O)ccc4c3oc-2c1`
Solution: 8.48

---

Experiment: pKa of SNAFR-2 from absorption and emission spectra as a function of pH
Format: physicochemical
Conditions: 50 mM phosphate buffer with 0.25% DMSO, different excitation wavelengths; phosphate buffer with 0.25% DMSO; read-out: pKa values inferred from emission spectra
Parameter measured: pKa

Problem: Please look up its pKa: O=c1ccc2c(-c3ccccc3)c3ccc4cc(O)ccc4c3oc-2c1 [SNAFR-2]
Solution: 8.31 to 8.38

---

Assay: pKa of SNAFR-2 from absorption and emission spectra as a function of pH
Type: physicochemical
Conditions: 50 mM phosphate buffer with 0.25% DMSO, Abs, λisobestic 484, λ1/λ2 543/484; 50 mM phosphate buffer; read-out: pKa
Parameter measured: pKa
// return a plain number; no unit text

Problem: Please look up its pKa: `O=c1ccc2c(-c3ccccc3)c3ccc4cc(O)ccc4c3oc-2c1`
Solution: 8.52

---

Test: pKa of SNAFR-2 from absorption and emission spectra as a function of pH
Format: physicochemical
Conditions: 50 mM phosphate buffer with 0.25% DMSO, Abs, λisobestic 304, λ1/λ2 265/304; 50 mM phosphate buffer; read-out: pKa
Parameter measured: pKa
// return a plain number; no unit text

Problem: Please look up its pKa: `O=c1ccc2c(-c3ccccc3)c3ccc4cc(O)ccc4c3oc-2c1`
Solution: 8.48

---

Test: pKa of SNAFR-2 from absorption and emission spectra as a function of pH
Format: physicochemical
Details: 50 mM phosphate buffer with 0.25% DMSO, Em, λex 488, λ1/λ2 630/600; 50 mM phosphate buffer; read-out: pKa
Description: SNAFR-2 was dissolved in 50 mM phosphate buffer with 0.25% DMSO. As the pH increased, the absorption band centered at 550 nm increased. We attributed this band to the anionic form (A). Concurrently, the absorption band at ca. 460 nm decreased. […] FIGS. 1A through 1H depict the spectral properties of 30 μM SNAFR-2 in 50 mM phosphate buffer with 0.25% DMSO at various pH values. […] FIGS. 1B-D depict excitation spectra, with emission monitored at 400 nm, 540 nm, and 620 nm respectively. […]
Parameter measured: pKa

Problem: Please look up its pKa: O=c1ccc2c(-c3ccccc3)c3ccc4cc(O)ccc4c3oc-2c1 [SNAFR-2]
Solution: 8.35

---

Test: pKa of SNAFR-2 from absorption and emission spectra as a function of pH
Format: physicochemical
Details: 50 mM phosphate buffer with 0.25% DMSO, Abs, λisobestic 484, λ1/λ2 511/484; 50 mM phosphate buffer; read-out: pKa
Procedure: SNAFR-2 was dissolved in 50 mM phosphate buffer with 0.25% DMSO. As the pH increased, the absorption band centered at 550 nm increased. We attributed this band to the anionic form (A). Concurrently, the absorption band at ca. 460 nm decreased. […] FIGS. 1A through 1H depict the spectral properties of 30 μM SNAFR-2 in 50 mM phosphate buffer with 0.25% DMSO at various pH values. […] FIGS. 1B-D depict excitation spectra, with emission monitored at 400 nm, 540 nm, and 620 nm respectively. […]
Parameter measured: pKa
// return a plain number; no unit text

Problem: Please look up its pKa: `O=c1ccc2c(-c3ccccc3)c3ccc4cc(O)ccc4c3oc-2c1`
Solution: 8.54

From: patent US8350064B2
